The measurements presented in this section are drawn from patent US10689383B2.

Target: yeast Gal4-DNA binding domain fused to the ligand binding domain of human RORγ (Homo sapiens, UniProt P51449)
Construct: host or cells: HEK293t
Sequence (P51449 269-508 limits assumed): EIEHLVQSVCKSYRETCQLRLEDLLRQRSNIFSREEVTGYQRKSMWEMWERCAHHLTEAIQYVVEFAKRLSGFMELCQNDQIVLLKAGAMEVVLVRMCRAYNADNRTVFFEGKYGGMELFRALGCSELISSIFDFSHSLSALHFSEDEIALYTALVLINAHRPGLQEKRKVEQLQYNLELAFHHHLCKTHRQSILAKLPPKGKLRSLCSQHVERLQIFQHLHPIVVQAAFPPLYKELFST
Assay: RORγ Reporter Assay (Gal4)
Type: cell-based
Settings: RORγ Reporter Assay (Gal4) at 0.1 μM; values given as lower bounds of ranges
Collected Gal4 activity range @ 0.1 μM (% inhibition) values appear next to each entry.

Incoming: Report Gal4 activity range @ 0.1 μM (% inhibition) for NC(=O)Cc1ccc(CNc2ncnc(N3CCOC[C@@H]3c3ccc(C(F)(F)F)cc3)c2F)cc1 [Example 204]
Outgoing: >50 % inhibition

Next:
Incoming: Report Gal4 activity range @ 0.1 μM (% inhibition) for OCc1ccc(CNc2ncnc(N3CCC[C@@H]3c3ccc(C(F)(F)F)cc3)c2F)cc1 [Example 227]
Outgoing: >80 % inhibition

Incoming: Report Gal4 activity range @ 0.1 μM (% inhibition) for OC1(CNc2ncnc(N3CCCC3c3ccc(C(F)(F)F)cc3)c2F)CCOCC1 (stereo not drawn) [Example 129]
Outgoing: >50 % inhibition

###

Collected IC50 values appear next to each entry.
Molecular target: human RORγt (Ligand Binding Domain) (Homo sapiens, UniProt P51449)
Construct: purchased Crelux (Planegg, Germany) batch no PC5032-1
Experiment: Fluorescence Polarization (FP) Assay
Conditions: Fluorescence Polarization (FP) Assay; values given as upper bounds of activity ranges; read-out: FP activity range

Incoming: Report IC50 for O=C(O)Cc1ccc(CNc2ncnc(N3CCOCC3c3ccc(C(F)(F)F)cc3)c2F)cc1 (stereo not shown)
Outgoing: < 1000 nM

Incoming: Report IC50 for CS(=O)(=O)N1CCC(CNc2ncnc(N3CCOC[C@@H]3c3ccc(C(F)(F)F)cc3)c2F)C1 (stereo partly shown)
Outgoing: < 1000 nM

Incoming: Report IC50 for Fc1c(NCC2CCCS2)ncnc1N1CCC[C@@H]1c1ccc(C(F)(F)F)cc1 (stereo partly shown)
Outgoing: < 2000 nM

Incoming: Report IC50 for "OCc1cccc(CNc2ncnc(N3CCC[C@@H]3c3ccc(C(F)(F)F)cc3)c2F)c1"
Outgoing: < 10000 nM

Incoming: Report IC50 for CC(C)(C)C[C@@H](Nc1ncnc(N2CCOCC2c2ccc(OC(F)(F)F)cc2)c1F)C(N)=O (stereo partly shown)
Outgoing: < 2000 nM

Incoming: Report IC50 for "CC1(CNc2ncnc(N3CCC[C@@H]3c3ccc(C(F)(F)F)cc3)c2F)CCOCC1"
Outgoing: < 500 nM

Incoming: Report IC50 for OC1(CNc2ncnc(N3CCC[C@@H]3c3ccc(C(F)(F)F)cc3)c2F)CCSC1 (stereo partly shown)
Outgoing: < 500 nM

Incoming: Report IC50 for COc1cc(C(F)(F)F)ccc1C1CCCN1c1ncnc(N[C@H](CC(C)(C)C)C(N)=O)c1F (stereo partly shown)
Outgoing: < 500 nM

Incoming: Report IC50 for "OCC1(CNc2ncnc(N3CCOC[C@@H]3c3ccc(C(F)(F)F)cc3)c2F)CC1"
Outgoing: < 10000 nM

Incoming: Report IC50 for CC(CC1CCOCC1)Nc1ncnc(N2CCCC2c2ccc(C(F)(F)F)cc2)c1F (stereo not shown)
Outgoing: < 2000 nM

Incoming: Report IC50 for "OC1(CNc2ncnc(N3CCC[C@@H]3c3ccc(C(F)(F)F)cc3)c2F)CCCCCC1"
Outgoing: < 500 nM

Incoming: Report IC50 for "OCCC1(CNc2ncnc(N3CCC[C@@H]3c3ccc(C(F)(F)F)cc3)c2F)CCOCC1"
Outgoing: < 500 nM

Incoming: Report IC50 for "NC(=O)C1(CNc2ncnc(N3CCOC[C@@H]3c3ccc(C(F)(F)F)cc3)c2F)CCOCC1"
Outgoing: < 2000 nM

Incoming: Report IC50 for "NC(=O)Cc1ccc(CNc2ncnc(N3CCC[C@@H]3c3ccc(C(F)(F)F)cc3F)c2F)cc1"
Outgoing: < 500 nM

Incoming: Report IC50 for NS(=O)(=O)Cc1ccc(CNc2ncnc(N3CCCC3c3ccc(C(F)(F)F)cc3)c2F)cc1 (stereo not shown)
Outgoing: < 1000 nM

Incoming: Report IC50 for "COCC1(CNc2ncnc(N3CCC[C@@H]3c3ccc(C(F)(F)F)cc3)c2F)CCC1"
Outgoing: < 500 nM

Incoming: Report IC50 for Fc1c(NCc2ccc(C(F)(F)F)cc2)ncnc1N1CCCC1c1ccc(C(F)(F)F)cc1 (stereo not shown)
Outgoing: < 2000 nM
